Attribution: BindingDB's records for doi:10.1016/j.bmcl.2014.03.015

Record type: IC50 measurement. Applies to: UniProtKB Q06124
Sequence (Q06124 whole entry): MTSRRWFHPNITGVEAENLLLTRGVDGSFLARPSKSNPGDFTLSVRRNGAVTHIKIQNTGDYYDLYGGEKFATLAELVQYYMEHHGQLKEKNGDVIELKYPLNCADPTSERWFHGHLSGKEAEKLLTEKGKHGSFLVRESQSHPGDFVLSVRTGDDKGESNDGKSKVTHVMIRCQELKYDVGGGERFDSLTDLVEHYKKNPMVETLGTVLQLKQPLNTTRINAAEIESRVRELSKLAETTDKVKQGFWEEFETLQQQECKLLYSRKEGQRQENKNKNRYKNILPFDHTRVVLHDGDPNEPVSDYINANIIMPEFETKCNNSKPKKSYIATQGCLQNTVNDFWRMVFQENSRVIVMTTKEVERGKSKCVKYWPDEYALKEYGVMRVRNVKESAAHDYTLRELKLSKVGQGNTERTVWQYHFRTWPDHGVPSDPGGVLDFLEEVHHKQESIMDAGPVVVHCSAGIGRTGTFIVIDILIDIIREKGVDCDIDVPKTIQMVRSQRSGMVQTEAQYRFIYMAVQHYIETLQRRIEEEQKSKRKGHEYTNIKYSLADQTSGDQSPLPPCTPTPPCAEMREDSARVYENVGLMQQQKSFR

Line notation | Value units | IC50
[O]=[V]([OH])([OH])[OH] | µM | 34.7
O=C(Nc1ccc(-c2ccc(NC(=O)c3ccc(F)cc3)cn2)cc1)c1ccc(F)cc1 | µM | 19.7
